pIC50 values for the compounds below.
Target: CYP11A1 (Homo sapiens, UniProt P05108)
Construct: human H295R adrenocortical carcinoma cell line was used as source of enzyme; endogenous in cells
Method summary: CYP11A1 inhibition: modified isocaproic acid release assay (IARA) in H295R cells
Measurement parameters: human H295R adrenocortical carcinoma cells treated three days, 3 nM [24,25-3H]-labelled cholesterol, 1% DMSO, 10 concentrations in duplicates; read-out: IC50 of the test compounds on CYP11A1 inhibition
pIC50: −log10 of the molar value.

# annotated cases, reported pIC50 shown
# Compound, pIC50
rows = [
    ("COCCS(=O)(=O)c1ccc(COc2coc(CN3Cc4ccccc4C3)cc2=O)cc1", "6.52 to 6.82"),
    ("CS(=O)(=O)N1CCC(COc2coc(CN3Cc4ccccc4C3)cc2=O)C(O)C1 (centres unmarked)", "5.70 to 6.52"),
    ("CS(=O)(=O)N1CC=C(COc2coc(CN3Cc4ccccc4C3)cc2=O)CC1", "6.52 to 6.82"),
    ("CS(=O)(=O)N1CCC(F)(COc2coc(CN3Cc4ccc(F)cc4C3)cc2=O)CC1", "6.52 to 6.82"),
    ("N#Cc1ccc(COc2coc(CN3Cc4ccccc4C3)cc2=O)cc1", "5.70 to 6.52"),
    ("CN(C)S(=O)(=O)c1ccc(COc2coc(CN3Cc4ccccc4C3)cc2=O)cc1", "> 6.82"),
    ("CN(C)C(=O)c1ccc(COc2coc(CN3CCc4ccccc4C3)cc2=O)cc1F", "5.70 to 6.52"),
]

As a next step, examine the compound that follows.
[Q] Please give the measured pIC50 for this compound: CN(C)C(=O)c1ccc(COc2coc(CN3Cc4ccc(Cl)cc4C3)cc2=O)cc1
[A] > 6.82

----------
Target: CYP11A1 (Homo sapiens, UniProt P05108)
Construct: human H295R adrenocortical carcinoma cell line was used as source of enzyme; endogenous in cells
Sequence (P05108 40-521): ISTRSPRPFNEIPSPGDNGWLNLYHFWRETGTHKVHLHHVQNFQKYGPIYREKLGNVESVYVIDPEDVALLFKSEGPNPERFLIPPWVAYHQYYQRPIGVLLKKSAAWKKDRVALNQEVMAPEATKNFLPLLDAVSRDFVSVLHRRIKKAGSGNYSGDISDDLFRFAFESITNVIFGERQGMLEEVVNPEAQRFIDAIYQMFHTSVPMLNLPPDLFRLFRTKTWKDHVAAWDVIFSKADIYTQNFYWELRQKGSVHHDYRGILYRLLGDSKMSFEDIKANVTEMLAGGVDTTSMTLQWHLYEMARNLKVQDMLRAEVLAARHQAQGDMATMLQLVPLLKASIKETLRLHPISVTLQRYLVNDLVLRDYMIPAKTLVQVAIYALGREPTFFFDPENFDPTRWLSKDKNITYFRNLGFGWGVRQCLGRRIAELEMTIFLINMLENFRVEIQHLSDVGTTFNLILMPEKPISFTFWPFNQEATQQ
Method summary: CYP11A1 inhibition: modified isocaproic acid release assay (IARA) in H295R cells
Measurement parameters: human H295R adrenocortical carcinoma cells treated three days, 3 nM [24,25-3H]-labelled cholesterol, 1% DMSO, 10 concentrations in duplicates; read-out: IC50 of the test compounds on CYP11A1 inhibition
pIC50: −log10 of the molar value.
Value kind: pIC50

# annotated cases, reported pIC50 shown
# Compound, pIC50
data = [
    ("COC(=O)/C=C/c1ccc(COc2coc(CN3Cc4ccccc4C3)cc2=O)cc1", "> 6.82"),
    ("CC(=O)[C@H]1CC[C@H](COc2coc(CN3Cc4ccccc4C3)cc2=O)CC1", "> 6.82"),
    ("CNC(=O)/C=C/c1ccc(COc2coc(CN3CCc4ccccc4C3)cc2=O)cc1", "5.70 to 6.52"),
]

As a next step, examine the compound that follows.
[Q] Please give the measured pIC50 for this compound: O=c1cc(CN2Cc3ccccc3C2)occ1OCc1ccc(S(=O)(=O)NCCO)cc1
[A] > 6.82

----------
Target: CYP11A1 (Homo sapiens)
Construct: human H295R adrenocortical carcinoma cell line was used as source of enzyme; endogenous in cells
Sequence (P05108 40-521): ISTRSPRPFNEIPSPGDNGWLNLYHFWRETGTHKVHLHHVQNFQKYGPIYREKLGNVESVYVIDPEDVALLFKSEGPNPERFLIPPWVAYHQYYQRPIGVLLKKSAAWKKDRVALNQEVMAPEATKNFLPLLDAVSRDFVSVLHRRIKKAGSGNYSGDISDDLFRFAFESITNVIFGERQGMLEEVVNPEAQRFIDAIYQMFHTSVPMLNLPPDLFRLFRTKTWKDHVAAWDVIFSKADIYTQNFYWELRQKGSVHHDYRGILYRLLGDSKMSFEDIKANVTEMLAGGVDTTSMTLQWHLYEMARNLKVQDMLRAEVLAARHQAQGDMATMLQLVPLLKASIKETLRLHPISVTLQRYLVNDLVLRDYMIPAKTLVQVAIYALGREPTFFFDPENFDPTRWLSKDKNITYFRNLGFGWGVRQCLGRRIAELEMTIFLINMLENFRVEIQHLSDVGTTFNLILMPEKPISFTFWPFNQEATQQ
Method summary: CYP11A1 inhibition: modified isocaproic acid release assay (IARA) in H295R cells
Measurement parameters: human H295R adrenocortical carcinoma cells treated three days, 3 nM [24,25-3H]-labelled cholesterol, 1% DMSO, 10 concentrations in duplicates; read-out: IC50 of the test compounds on CYP11A1 inhibition
IC50 values for the molecules below.

# Molecule, Observed measurement
rows = [
    ("CSc1ccc(COc2coc(CN3Cc4ccccc4C3)cc2=O)cc1 [Compound 82]", "150 to 300 nM"),
    ("Nc1cccc(COc2coc(CN3Cc4ccccc4C3)cc2=O)c1 [Compound 263]", "301 to 2000 nM"),
    ("O=c1cc(CN2Cc3ccccc3C2)occ1OCc1ccc(S(=O)(=O)N2CCC2)cc1 [Compound 9]", "150 to 300 nM"),
    ("C[C@H]1c2ccccc2CN1Cc1cc(=O)c(OCc2ccc(C(=O)N(C)C)cc2)co1 [Compound 132]", "301 to 2000 nM"),
    ("CC(C)(C)OC(=O)N1CCC(COc2coc(CN3Cc4ccccc4C3)cc2=O)C1 (centres unmarked) [Compound 182]", "301 to 2000 nM"),
    ("CC(c1cc(=O)c(OCC2CCN(S(C)(=O)=O)CC2)co1)N1Cc2ccccc2C1 (centres unmarked) [Compound 195]", "< 150 nM"),
    ("CCS(=O)(=O)N1CCC(COc2coc(CN3Cc4ccccc4C3)cc2=O)CC1 [Compound 188]", "< 150 nM"),
]

[Q] Please give the measured IC50 for this molecule: CN(C)C(=O)N1CCC(COc2coc(CN3Cc4ccccc4C3)cc2=O)C1 (centres unmarked) [Compound 183]
[A] 301 to 2000 nM

----------
IC50 values for the molecules below.
Target: CYP11A1 (Homo sapiens)
Construct: human H295R adrenocortical carcinoma cell line was used as source of enzyme; endogenous in cells
Method summary: CYP11A1 inhibition: modified isocaproic acid release assay (IARA) in H295R cells
Measurement parameters: human H295R adrenocortical carcinoma cells treated three days, 3 nM [24,25-3H]-labelled cholesterol, 1% DMSO, 10 concentrations in duplicates; read-out: IC50 of the test compounds on CYP11A1 inhibition

# Molecule, IC50
rows = [
    ("CS(=O)(=O)c1ccc(COc2coc(CN3Cc4ccccc4C3)cc2=O)c(Cl)c1", "301 to 2000 nM"),
]

[Q] Request body: readout IC50, system CYP11A1 (Homo sapiens), query CC1c2ccccc2CCN1Cc1cc(=O)c(OCc2ccc(C(C)(C)O)cc2)co1 (centres unmarked) . Return the value.
[A] 301 to 2000 nM

[Q] # iterate: CCS(=O)(=O)c1ccc(COc2coc(CN3Cc4ccccc4C3)cc2=O)cc1
[A] 150 to 300 nM

[Q] # iterate: NC(=O)c1ccc(COc2coc(CN3CCc4ccccc4C3)cc2=O)cc1
[A] 301 to 2000 nM

----------
IC50 values for the molecules below.
Target: CYP11A1 (Homo sapiens)
Construct: human H295R adrenocortical carcinoma cell line was used as source of enzyme; endogenous in cells
Method summary: CYP11A1 inhibition: modified isocaproic acid release assay (IARA) in H295R cells
Measurement parameters: human H295R adrenocortical carcinoma cells treated three days, 3 nM [24,25-3H]-labelled cholesterol, 1% DMSO, 10 concentrations in duplicates; read-out: IC50 of the test compounds on CYP11A1 inhibition

# Molecule, Target, IC50
records = [
    ("O=C(c1ccc(COc2coc(CN3Cc4ccccc4C3)cc2=O)cc1)N1CCC1 [Compound 129]", "CYP11A1 (Homo sapiens)", "< 150 nM"),
    ("CCCCCCNC(=O)c1ccc(COc2coc(CN3Cc4ccccc4C3)cc2=O)cc1 [Compound 142]", "CYP11A1 (Homo sapiens)", "150 to 300 nM"),
    ("CC(C)S(=N)(=O)c1ccc(COc2coc(CN3Cc4ccccc4C3)cc2=O)cc1 (stereo not shown) [Compound 103]", "CYP11A1 (Homo sapiens)", "< 150 nM"),
]

As a next step, examine the molecule that follows.
[Q] Please give the measured IC50 for this molecule: C#CCNC(=O)c1ccc(COc2coc(CN3Cc4ccccc4C3)cc2=O)cc1 [Compound 141]
[A] 301 to 2000 nM

Data provenance is patent US11098032B2.
